System: human coronavirus (HCoV) 229E
Assay Protocol: microbe, parasite or virus in culture
Assay type: cell-based, human coronavirus 229E
Protocol Conditions: unidentified human coronavirus, 72 h, MRCS cells, HCoV 229E, 3 days, CellTiter Glo; read-out: 229E CPE EC50
Measured Endpoint: pEC50
Formally, pEC50 is defined as -log10 of the concentration c, with c in mol/L.

The cases that follow already have their pEC50 on record.
CC(C)(C)[C@H](NC(=S)NC1CC(F)(F)C1)C(=O)N1C[C@H]2[C@@H]([C@H]1C(=O)N[C@H](C#N)C[C@@H]1CCNC1=O)C2(C)C = 6.15
CC(C)(C)[C@H](NC(=O)c1cc2ccccc2s1)C(=O)N1C[C@H]2[C@@H]([C@H]1C(=O)N[C@H](C#N)C[C@@H]1CCNC1=O)C2(C)C = 5.23
CCc1ccc(S(=O)(=O)N[C@H](C(=O)N2C[C@H]3[C@@H]([C@H]2C(=O)N[C@H](C#N)C[C@@H]2CCNC2=O)C3(C)C)C(C)(C)C)s1 = 6.85
CC1(C)[C@@H]2[C@@H](C(=O)N[C@H](C#N)C[C@@H]3CCNC3=O)N(C(=O)[C@@H](NC(=O)C(F)(F)F)c3ccc(F)cc3)C[C@@H]21 = 5.21
CC(C)(C)[C@H](NS(=O)(=O)c1ccc2c(c1)CCO2)C(=O)N1C[C@H]2[C@@H]([C@H]1C(=O)N[C@H](C#N)C[C@@H]1CCNC1=O)C2(C)C = 6.08
CC(C)(C)[C@H](NC(=O)NC1(CS(=O)(=O)C(C)(C)C)CCCCC1)C(=O)N1C[C@H]2[C@@H]([C@H]1C(=O)N[C@H](C#N)C[C@@H]1CCNC1=O)C2(C)C = 4.78
CC(C)(C)[C@H](NC(=O)c1cnc2[nH]ccc2c1)C(=O)N1C[C@H]2[C@@H]([C@H]1C(=O)N[C@H](C#N)C[C@@H]1CCNC1=O)C2(C)C = 4.88
Cc1c(C)c(C)c(S(=O)(=O)N[C@H](C(=O)N2C[C@H]3[C@@H]([C@H]2C(=O)N[C@H](C#N)C[C@@H]2CCNC2=O)C3(C)C)C(C)(C)C)c(C)c1C = 6.55

query: Which measured pEC50 value corresponds to `C=C(F)C(=O)N[C@H](C(=O)N1C[C@H]2[C@@H]([C@H]1C(=O)N[C@H](C#N)C[C@@H]1CCNC1=O)C2(C)C)C(C)(C)C` ?
result: 5.97

query: Which measured pEC50 value corresponds to `CNC(=S)N[C@H](C(=O)N1C[C@H]2[C@@H]([C@H]1C(=O)N[C@H](C#N)C[C@@H]1CCNC1=O)C2(C)C)C(C)(C)C` ?
result: 5.30
